Numbers sourced from patent US4452991A.

Parameter EC50: see the listing below.
- Test system: virus
- protocol details: plaque reduction (PR) test, antiviral activity in monolayer cell culture
- Type: cell-based
- particulars: compound in nutrient agarose overlay, 50% effective dose vs control, read-out: PR (ED50 /μM)
property label: EC50 (µM)

1. Clc1cccc2c1O[C@@H]1c3ccccc3C[C@@H]1C2 (relative stereo) = 1.5
2. Clc1cc(Cl)c2c(c1)C[C@@H]1CCc3ccccc3[C@@H]1O2 (relative stereo) = 6
3. c1ccc2c(c1)C[C@@H]1CCc3ccccc3[C@@H]1O2 (relative stereo) = 0.03
4. Clc1cc(Cl)c2c(c1)C[C@H]1Cc3ccccc3[C@H]1O2 (relative stereo) = 0.57
5. C[C@@H]1Cc2cc(Cl)ccc2O[C@H]1c1ccc(Cl)cc1 (relative stereo) [Example 2, trans-4',6-dichloro-3-methylflavan] = 0.135
6. c1ccc2c(c1)C[C@H]1Cc3ccccc3[C@H]1O2 (relative stereo) = 0.38
7. C[C@@H]1Cc2ccccc2O[C@H]1c1ccccc1 (relative stereo) [Example 1, trans-3-methylflavan] = 0.125
8. C[C@H]1Cc2ccccc2O[C@H]1c1ccccc1 (relative stereo) [Example 3, cis-3-methylflavan] = 1.1
